# tested_target: STING (Mus musculus, UniProt Q3TBT3)
# Sequence (Q3TBT3 1-378): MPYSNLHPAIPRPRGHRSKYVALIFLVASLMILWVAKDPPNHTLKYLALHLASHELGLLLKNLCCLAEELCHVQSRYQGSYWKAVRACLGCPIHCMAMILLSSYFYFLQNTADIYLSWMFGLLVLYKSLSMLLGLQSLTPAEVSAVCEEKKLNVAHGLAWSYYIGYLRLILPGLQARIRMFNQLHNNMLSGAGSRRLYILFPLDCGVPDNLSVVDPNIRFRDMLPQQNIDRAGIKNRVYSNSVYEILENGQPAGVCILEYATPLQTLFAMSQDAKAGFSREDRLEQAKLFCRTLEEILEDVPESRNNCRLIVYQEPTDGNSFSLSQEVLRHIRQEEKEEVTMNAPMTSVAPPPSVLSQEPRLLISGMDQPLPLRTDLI
# protocol_text: Cytokine secretion (ELISA) from DMXAA-activated splenocytes
# Type: cell-based, C57BL/6 mice
# Parameters: Splenocytes were recovered from C57BL/6 WT female mice; endogenous in cells; host or cells: primary splenocytes of C57BL/6 mice
# assay_context: at 5,000 nM, resting splenocytes
readout_name: STING inhibition (ranking)

c1ccc(CSc2nnc(CCCCCCCCc3nnc(SCc4ccccc4)o3)o2)cc1    Best STING Inhibitors
COc1ccccc1CCN1CCCC(CN(C)C(=O)Cc2cn(C)c3ccccc23)C1 (stereo not shown)    Best STING Inhibitors
Cc1ccc(C(=O)Nc2cnn(-c3ccc(C(=O)N4CCC(c5ccc(F)cc5)C4)cc3)c2)c(C)c1 (stereo not shown)    Best STING Inhibitors
Cc1ccc2c(-c3cc4c(n(CC5CC5)c3=O)CCN(C(=O)C3=NN(C)C(=O)CC3)C4)cccc2n1    Best STING Inhibitors

This collection of values is drawn from patent US20250302798A1.
